This collection of values is drawn from ChEMBL document CHEMBL1909046.

- protocolDetails: DRUGMATRIX: Sodium/nucleoside co-transporter radioligand binding (ligand: nitrobenzylthioinosine)
- Format: cell membranes, Cavia porcellus, Dunkin-Hartley, Cerebral cortex, Membrane
- assaySetup: Not Active = under 50% inhibition at 10 µM; read-out: Ki
reportedEndpoint: pKi
Would you please state pKi, meaning minus log10 of the concentration in mol/L, as a bare number?

**Q:** Would you mind telling me what pKi value was observed for C[C@]12C=CC(=O)C=C1CC[C@@H]1[C@@H]2C(=O)C[C@@]2(C)[C@H]1CC[C@]2(O)C(=O)CO ?
**A:** 5.77

###

- protocolDetails: DRUGMATRIX: Calcium Channel Type L, Dihydropyridine radioligand binding (ligand: [3H] Nitrendipine)
- Assay type: cell membranes, Rattus norvegicus, Wistar, Cerebral cortex, Membrane
- assaySetup: Not Active = under 50% inhibition at 10 µM; read-out: Ki
reportedEndpoint: Ki (nM)
Report the value in nM with no unit label.

Below, each entry is followed by its recorded Ki result.
**Q:** Would you mind telling me what Ki value was observed for COC(=O)[C@H]1[C@H]2C[C@@H]3c4[nH]c5cc(OC)ccc5c4CCN3C[C@H]2C[C@@H](OC(=O)c2cc(OC)c(OC)c(OC)c2)[C@@H]1OC ?
**A:** 528

**Q:** Would you mind telling me what Ki value was observed for CCCCCCCCNC(C)C(O)c1ccc(SC(C)C)cc1 (stereo not drawn) ?
**A:** 167

Turning to the following compound.
**Q:** Would you mind telling me what Ki value was observed for Cc1c(O)cccc1C(=O)N[C@@H](CSc1ccccc1)[C@H](O)CN1C[C@H]2CCCC[C@H]2C[C@H]1C(=O)NC(C)(C)C ?
**A:** 6320

###

- measuredOn: Type-2 angiotensin II receptor (Homo sapiens, UniProt P50052)
- Sequence (P50052 whole entry): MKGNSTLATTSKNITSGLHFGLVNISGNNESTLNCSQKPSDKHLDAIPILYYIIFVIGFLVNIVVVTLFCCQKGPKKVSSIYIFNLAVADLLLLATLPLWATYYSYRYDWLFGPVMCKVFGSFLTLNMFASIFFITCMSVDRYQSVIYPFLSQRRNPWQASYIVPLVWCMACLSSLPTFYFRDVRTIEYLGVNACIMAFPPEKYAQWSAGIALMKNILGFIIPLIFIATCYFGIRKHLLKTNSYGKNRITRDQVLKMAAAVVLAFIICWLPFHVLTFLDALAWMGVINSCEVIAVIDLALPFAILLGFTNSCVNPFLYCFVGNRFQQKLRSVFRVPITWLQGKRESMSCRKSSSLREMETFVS
- protocolDetails: biochemical
- Format: cell-based, CHO-K1
- assaySetup: cho-k1
reportedEndpoint: IC50

**Q:** Would you mind telling me what IC50 value was observed for ZIRCONIUM(IV) CHLORIDE ?
**A:** Not Active

**Q:** Would you mind telling me what IC50 value was observed for TRANSPLATIN ?
**A:** Not Active

**Q:** Would you mind telling me what IC50 value was observed for COBALTOUS CHLORIDE ?
**A:** Not Active

**Q:** Would you mind telling me what IC50 value was observed for COLISTIN ?
**A:** Not Active

###

- measuredOn: Beta-1 adrenergic receptor (Homo sapiens)
- Sequence (P08588 whole entry): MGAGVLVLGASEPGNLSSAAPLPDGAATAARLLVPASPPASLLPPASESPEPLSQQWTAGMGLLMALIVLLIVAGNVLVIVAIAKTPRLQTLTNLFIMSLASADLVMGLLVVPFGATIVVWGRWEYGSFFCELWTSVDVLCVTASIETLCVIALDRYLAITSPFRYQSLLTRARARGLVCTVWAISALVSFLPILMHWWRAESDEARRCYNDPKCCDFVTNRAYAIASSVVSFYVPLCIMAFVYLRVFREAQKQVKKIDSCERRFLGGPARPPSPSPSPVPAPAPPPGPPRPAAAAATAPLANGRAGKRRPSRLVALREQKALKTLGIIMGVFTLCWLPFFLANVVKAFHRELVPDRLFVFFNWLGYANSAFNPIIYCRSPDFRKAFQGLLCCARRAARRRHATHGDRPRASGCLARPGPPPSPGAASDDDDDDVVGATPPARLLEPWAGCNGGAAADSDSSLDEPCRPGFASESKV
- protocolDetails: DRUGMATRIX: Adrenergic beta1 radioligand binding (ligand: [125I] Cyanopindolol)
- Format: cell membranes, CHO-K1, Membrane
- assaySetup: Not Active = under 50% inhibition at 10 µM; read-out: Ki
reportedEndpoint: pKi
Would you please state pKi, meaning minus log10 of the concentration in mol/L, as a bare number?

**Q:** Would you mind telling me what pKi value was observed for CC(C)NCC(O)c1ccccc1Cl (stereo unspecified) [CLORPRENALINE] ?
**A:** 5.82
